# assayed.system: CDK2/cyclin A2 (Homo sapiens)
# Construct: purchased Carna Biosciences, Inc. QS S Assist CDK2/Cyclin A2_FP Kit
# procedure.summary: Human CDK2/cyclin A2 inhibitory activity (QS S Assist CDK2/Cyclin A2_FP Kit, IMAP fluorescence polarization)
# Assay type: biochemical
# run.parameters: Human CDK2/cyclin A2 inhibitory activity; read-out: CDK2 Activity symbol

| molecule | IC50 |
| --- | --- |
| CCCN1CCN(Cc2ccc(Nc3ncc4cc([C@@H](C)O)nc(NC(C)(C)COC)c4n3)nc2)CC1 [Compound 243] | ≥ 0.1 µM |
| CC(C)Nc1nc([C@@H](C)O)c(F)c2cnc(Nc3ccc(N4CCNCC4)cn3)nc12 [Compound 64] | ≥ 0.1 µM |
| CO[C@H](C)c1cc2cnc(Nc3ccc(OCCN4CCOCC4)cn3)nc2c(NC(C)C)n1 [Compound 282] | ≥ 0.1 µM |
| Cc1ccc(Nc2ncc3cc(C(F)F)nc(NC(C)C)c3n2)nc1 [Compound 157] | ≥ 0.1 µM |
| CC(C)Nc1nc(C(F)F)cc2cnc(Nc3ccc(N4CCC(O)CC4)cn3)nc12 [Compound 50] | 0.01 to 0.1 µM |
| CC(C)Nc1nc(C(F)F)cc2cnc(Nc3ccc(N4CCN(CCO)CC4)cn3)nc12 [Compound 49] | 0.01 to 0.1 µM |
| CC(C)Nc1nc(C(F)F)cc2cnc(Nc3ccc(OCC(C)(C)CO)cn3)nc12 [Compound 122] | ≥ 0.1 µM |
| CC(C)Nc1nc([C@@H](C)O)cc2cnc(Nc3ccc(CN4CCNC5(CC5)C4)cn3)nc12 [Compound 537] | ≥ 0.1 µM |
| CO[C@H](C)c1cc2cnc(Nc3ccc(N4CC[C@@H](N)[C@@H](F)C4)cn3)nc2c(NC(C)C)n1 [Compound 466] | ≥ 0.1 µM |
| CC(C)Nc1nc([C@@H](C)O)cc2cnc(Nc3ccc(CN4CCN(CC(C)(C)O)CC4)cn3)nc12 [Compound 626] | ≥ 0.1 µM |
| CC(C)Nc1nc(C(F)F)cc2cnc(Nc3ccc(N4CCNCC4=O)cn3)nc12 [Compound 89] | 0.01 to 0.1 µM |
| CC(CO)Nc1nc(C(C)O)cc2cnc(Nc3ccc(N4CCNCC4)cn3)nc12 (stereo not shown) [Compound 41] | ≥ 0.1 µM |
| CC(C)Nc1nc(C(F)F)cc2cnc(Nc3ccc(CCCCO)cn3)nc12 [Compound 108] | 0.01 to 0.1 µM |
| CC(C)Nc1nc(C(C)O)cc2cnc(Nc3ccc(C4CCNCC4)cn3)nc12 (stereo not shown) [Compound 78] | ≥ 0.1 µM |
| CO[C@H](C)c1cc2cnc(Nc3ccc(CN4CCNCC4)cn3)nc2c(N[C@H]2CCCOC2)n1 [Compound 300] | ≥ 0.1 µM |
| CC(=O)N(Cc1ccc(Nc2ncc3cc(C(F)F)nc(NC(C)C)c3n2)nc1)C[C@H]1CCCO1 [Compound 145] | 0.01 to 0.1 µM |

The measured values listed here are drawn from patent US10124004B2.
